Test system: SK-HEP-1: human liver cell cancer line
METHOD_DESCRIPTION: MTT assay on SK-HEP-1
Format: cell-based
MEASUREMENT_PARAMETERS: SK-HEP1, 96 h, growth inhibition, 96 h incubation
# IC50 per entry
Write it as a number; the unit nM goes unstated.

Reference set, count: 2
Tell me IC50 of CC(C)(C)[C@H](c1cc(-c2cc(F)ccc2F)cn1Cc1ccccc1)N(CC[C@H](N)C(=O)NCCNC(=O)CNC(=O)CCCC(=O)NCCCC[C@H](N)C(=O)O)C(=O)CO [Example M28] when tested on SK-HEP-1: human liver cell cancer line.
187

Tell me IC50 of CC(C)(C)[C@H](c1cc(-c2cc(F)ccc2F)cn1Cc1ccccc1)N(CC[C@H](N)C(=O)NCCNC(=O)CNC(=O)C(CC(=O)O)SC[C@H](N)C(=O)O)C(=O)CO (single isomer, unassigned) [Example M15] when tested on SK-HEP-1: human liver cell cancer line.
49.8

---
Tell me IC50 of CNC(=O)[C@H](CCN(C(=O)CO)[C@@H](c1cc(-c2cc(F)ccc2F)cn1Cc1ccccc1)C(C)(C)C)NC(=O)[C@H](CC(N)=O)NC(=O)[C@@H](C)NC(=O)[C@H](C)NC(=O)Cc1ccncc1 [Example R3r-LDL] when tested on SK-HEP-1: human liver cell cancer line.
283

Tell me IC50 of CC(C)(C)[C@H](c1cc(-c2cc(F)ccc2F)cn1Cc1ccccc1)N(CC[C@H](N)C(=O)NCCC(=O)N[C@@H](CCC(=O)O)C(=O)O)C(=O)CO [Example M23] when tested on SK-HEP-1: human liver cell cancer line.
500
